tgt: Proto-oncogene tyrosine-protein kinase receptor Ret (Homo sapiens)
test_parameters: at 10 µM
So basically: residual activity at 80% or higher? That is Met. Lower than 80%? That is Not met.

Would you please look over these solved cases?
smiles_string	tgt	assigned_category
COc1cc2ncnc(Nc3ccc(OCc4ccccc4)cc3)c2cc1OC	Proto-oncogene tyrosine-protein kinase receptor Ret (Homo sapiens)	Met
CCn1cnc2c(Nc3cccc(Cl)c3)nc(N[C@@H]3CCCC[C@@H]3N)nc21	Proto-oncogene tyrosine-protein kinase receptor Ret (Homo sapiens)	Not met
COc1cc(OC)c(/C=C2\C(=O)Nc3ccccc32)c(OC)c1	Proto-oncogene tyrosine-protein kinase receptor Ret (Homo sapiens)	Met
CC(C)(C)c1cc(C=C(C#N)C#N)cc(Br)c1O	Proto-oncogene tyrosine-protein kinase receptor Ret (Homo sapiens)	Met
O=[N+]([O-])/C=C/c1ccc2c(c1)OCO2	Proto-oncogene tyrosine-protein kinase receptor Ret (Homo sapiens)	Met

Assess whether reported residual activity for `COC(=O)[C@@]1(O)C[C@H]2O[C@]1(C)n1c3ccccc3c3c4c(c5c6ccccc6n2c5c31)C(=O)NC4` sits at 80% or higher.
Not met

Assess whether reported residual activity for `O=C1Nc2ccc3ncsc3c2/C1=C/c1c[nH]cn1` sits at 80% or higher.
Not met

----------
tgt: Rho-associated protein kinase 1 (Homo sapiens)
test_parameters: at 1 µM
observed_property: residual activity (%)
Answer in %, number only, no unit symbol.

Entry `O=c1[nH]c2ccccc2n1C1CCN(Cc2ccc(-c3nc4cc5[nH]cnc5cc4nc3-c3ccccc3)cc2)CC1` — recorded residual activity = 114

Entry `CC(C)[C@H](CO)Nc1nc(Nc2cccc(Cl)c2)c2ncn(C(C)C)c2n1` — recorded residual activity = 115

Entry C[S+]([O-])c1ccc(-c2nc(-c3ccc(F)cc3)c(-c3ccncc3)[nH]2)cc1 (centres undefined) — recorded residual activity = 70

Entry `O=[N+]([O-])/C=C/c1ccc2c(c1)OCO2` — recorded residual activity = 109

Entry `COc1cc2ncnc(Nc3ccc(OCc4ccccc4)cc3)c2cc1OC` — recorded residual activity = 83

Entry `O=C1Nc2ccc3ncsc3c2/C1=C/c1c[nH]cn1` — recorded residual activity = 59

----------
tgt: Tyrosine-protein kinase receptor UFO (Homo sapiens) (UniProt P30530)
Sequence (P30530 whole entry): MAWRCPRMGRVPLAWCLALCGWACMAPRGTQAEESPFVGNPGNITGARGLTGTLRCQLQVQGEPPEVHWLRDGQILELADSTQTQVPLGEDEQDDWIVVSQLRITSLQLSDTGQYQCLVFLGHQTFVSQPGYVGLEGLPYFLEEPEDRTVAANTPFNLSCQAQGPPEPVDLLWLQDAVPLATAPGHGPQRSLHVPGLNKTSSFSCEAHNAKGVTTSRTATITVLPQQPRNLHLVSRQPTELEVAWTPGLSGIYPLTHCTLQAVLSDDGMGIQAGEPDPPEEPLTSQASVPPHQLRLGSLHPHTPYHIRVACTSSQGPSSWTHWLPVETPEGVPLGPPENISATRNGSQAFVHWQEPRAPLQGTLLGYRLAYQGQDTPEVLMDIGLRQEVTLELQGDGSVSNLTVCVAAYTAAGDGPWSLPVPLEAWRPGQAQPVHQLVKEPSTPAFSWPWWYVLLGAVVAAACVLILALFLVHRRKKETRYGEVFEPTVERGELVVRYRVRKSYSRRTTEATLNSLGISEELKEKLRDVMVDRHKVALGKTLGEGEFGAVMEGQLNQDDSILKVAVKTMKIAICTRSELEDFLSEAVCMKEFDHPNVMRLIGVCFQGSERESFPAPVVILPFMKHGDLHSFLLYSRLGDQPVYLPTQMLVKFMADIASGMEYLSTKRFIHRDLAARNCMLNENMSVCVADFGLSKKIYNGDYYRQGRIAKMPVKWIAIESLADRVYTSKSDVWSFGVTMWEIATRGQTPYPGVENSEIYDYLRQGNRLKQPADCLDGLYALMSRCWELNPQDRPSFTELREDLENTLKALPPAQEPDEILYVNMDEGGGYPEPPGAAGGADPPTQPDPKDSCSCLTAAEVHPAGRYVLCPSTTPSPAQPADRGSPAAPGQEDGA
test_parameters: at 1 µM
observed_property: residual activity (%)
Answer in %, number only, no unit symbol.

compound	display_unit	endpoint_result
O=c1[nH]c2ccccc2n1C1CCN(Cc2ccc(-c3nc4cc5[nH]cnc5cc4nc3-c3ccccc3)cc2)CC1	%	77
CC(C)(C)c1cc(C=C(C#N)C#N)cc(Br)c1O	%	108
C[S+]([O-])c1ccc(-c2nc(-c3ccc(F)cc3)c(-c3ccncc3)[nH]2)cc1 (stereo not given)	%	122
c1cc(-c2cnn3cc(-c4ccc(OCCN5CCCCC5)cc4)cnc23)ccn1	%	76
COC(=O)[C@@]1(O)C[C@H]2O[C@]1(C)n1c3ccccc3c3c4c(c5c6ccccc6n2c5c31)C(=O)NC4	%	4
N/C(=N\[N+](=O)[O-])N/N=C\c1ccc(-c2cccc([N+](=O)[O-])c2)o1	%	94
CC(C)[C@H](CO)Nc1nc(Nc2cccc(Cl)c2)c2ncn(C(C)C)c2n1	%	90
O=C1c2ccccc2-c2nc3nnnn3nc21	%	81

Entry `COc1cc(OC)c(/C=C2\C(=O)Nc3ccccc32)c(OC)c1` — recorded residual activity = 98

Entry `O=[N+]([O-])/C=C/c1ccc2c(c1)OCO2` — recorded residual activity = 69

Taken from ChEMBL document CHEMBL2218924.
